- systemTested: UniProt:O95977
- Sequence (O95977 whole entry, the tested form may be a part): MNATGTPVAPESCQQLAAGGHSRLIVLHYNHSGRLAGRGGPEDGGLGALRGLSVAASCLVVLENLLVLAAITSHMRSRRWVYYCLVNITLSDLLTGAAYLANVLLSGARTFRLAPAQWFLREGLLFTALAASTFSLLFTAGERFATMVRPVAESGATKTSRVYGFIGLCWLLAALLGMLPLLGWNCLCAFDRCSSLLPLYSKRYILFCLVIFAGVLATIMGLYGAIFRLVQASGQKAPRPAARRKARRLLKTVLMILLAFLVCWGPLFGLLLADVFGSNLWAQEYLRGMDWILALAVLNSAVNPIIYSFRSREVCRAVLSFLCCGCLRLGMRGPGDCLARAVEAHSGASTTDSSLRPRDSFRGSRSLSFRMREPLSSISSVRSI
- assayMethodText: Agonist activity at human S1P4R expressed in human U2OS cells containing EDG6 gene co-expressing GAL4-VP16 and beta-arrestin/TEV protease assessed as migration of VP16-GAL4 into nucleus by […] based beta-lactamase reporter gene assay
- Assay type: functional, cell-based
measuredEndpoint: EC50 (nM)

Cc1ccc(OCCOc2ccc(Cl)cc2Cl)c([N+](=O)[O-])c1 = 1300
O=Cc1ccc(OCCOc2ccc(Cl)cc2Cl)c(Cl)n1 = 1800

P. COc1cc(Cl)ccc1OCCOc1ccc(C)nc1[N+](=O)[O-]
Q. OCc1ccc(OCCOc2ccc(Cl)cc2Cl)c(Cl)n1
R. C=Cc1ccc(OCCOc2ccc(Cl)cc2Cl)c(Cl)n1
S. Fc1ccc(OCCOc2ccc(Cl)cc2Cl)c(Br)n1
T. Cc1ccc(OCCOc2ccc(Cl)cc2F)c([N+](=O)[O-])n1
query: // sort entries: EC50, high to low Put the labels in the order asked and list them.
result: P, T, Q, R, S
